# system under test: T1, CD52 peptide #741
# T1 construct: also called CD52 peptide #741 chip
# test method notes: BIACORE (SPR), CD52 peptide #741 chip, preliminary constant; antibody at week 0 (before incubation)
pKd: −log10 of the molar value.
Below is a list of entries, each paired with its recorded pKd value.

binder | pKd
Ab14 (antibody, human IgG1, kappa, V domains shown) VH: EVQLVESGGGLVQPGGSLRLSCAASGFPFSNYWMNWVRQAPGKGLEWVGQIRLKSNNYATHYAESVKGRFTISRDDSKNSLYLQMNSLKTEDTAVYYCTPIDYWGQGTTVTVSS VL: DIVMTQTPLSLSVTPGQPASISCKSSQSLLYSNHKTYLNWVLQKPGQSPQRLIYLVSKLDSGVPDRFSGSGSGTDFTLKISRVEAEDVGVYYCVQGSHFHTFGQGTKLEIKR | 8.46
Ab11 (antibody, human IgG1, kappa, V domains shown) VH: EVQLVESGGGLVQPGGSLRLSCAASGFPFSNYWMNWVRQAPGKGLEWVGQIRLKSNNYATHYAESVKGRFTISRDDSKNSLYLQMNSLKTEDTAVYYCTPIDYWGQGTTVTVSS VL: DIVMTQTPLSLSVTPGQPASISCKSSQSLLYSNDKTYLNWVLQKPGQSPQRLIYLVSKLDSGVPDRFSGSGSGTDFTLKISRVEAEDVGVYYCVQGSHFHTFGQGTKLEIKR | 8.39
Ab22 (antibody, human IgG1, kappa, V domains shown) VH: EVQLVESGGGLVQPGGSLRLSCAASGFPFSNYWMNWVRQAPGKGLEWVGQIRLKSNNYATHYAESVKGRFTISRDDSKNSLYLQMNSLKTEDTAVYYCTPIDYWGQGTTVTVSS VL: DIVMTQTPLSLSVTPGQPASISCKSSQSLLYSNSKTYLNWVLQKPGQSPQRLIYLVSKLDSGVPDRFSGSGSGTDFTLKISRVEAEDVGVYYCVQGSHFHTFGQGTKLEIKR | 8.61
Ab16 (antibody, human IgG1, kappa, V domains shown) VH: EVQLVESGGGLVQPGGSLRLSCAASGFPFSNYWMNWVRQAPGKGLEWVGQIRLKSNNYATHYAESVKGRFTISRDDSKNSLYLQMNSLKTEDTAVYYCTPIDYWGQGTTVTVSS VL: DIVMTQTPLSLSVTPGQPASISCKSSQSLLYSNKKTYLNWVLQKPGQSPQRLIYLVSKLDSGVPDRFSGSGSGTDFTLKISRVEAEDVGVYYCVQGSHFHTFGQGTKLEIKR | 8.56
Ab26 (antibody, human IgG1, kappa, V domains shown, Humanized anti-human CD52 monoclonal antibody; made in HEK293 and in CHO cells; also called CTL; CTL1) VH: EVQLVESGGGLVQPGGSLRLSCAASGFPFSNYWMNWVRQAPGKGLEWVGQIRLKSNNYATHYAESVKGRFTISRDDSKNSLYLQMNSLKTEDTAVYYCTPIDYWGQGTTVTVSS VL: DIVMTQTPLSLSVTPGQPASISCKSSQSLLYSNGKTYLNWVLQKPGQSPQRLIYLVSKLDSGVPDRFSGSGSGTDFTLKISRVEAEDVGVYYCVQGSHFHTFGQGTKLEIKR | 8.52

Sourced from patent US20160024219A1
